target system: SIRT1 (Homo sapiens, UniProt Q96EB6)
Sequence (Q96EB6 1-747): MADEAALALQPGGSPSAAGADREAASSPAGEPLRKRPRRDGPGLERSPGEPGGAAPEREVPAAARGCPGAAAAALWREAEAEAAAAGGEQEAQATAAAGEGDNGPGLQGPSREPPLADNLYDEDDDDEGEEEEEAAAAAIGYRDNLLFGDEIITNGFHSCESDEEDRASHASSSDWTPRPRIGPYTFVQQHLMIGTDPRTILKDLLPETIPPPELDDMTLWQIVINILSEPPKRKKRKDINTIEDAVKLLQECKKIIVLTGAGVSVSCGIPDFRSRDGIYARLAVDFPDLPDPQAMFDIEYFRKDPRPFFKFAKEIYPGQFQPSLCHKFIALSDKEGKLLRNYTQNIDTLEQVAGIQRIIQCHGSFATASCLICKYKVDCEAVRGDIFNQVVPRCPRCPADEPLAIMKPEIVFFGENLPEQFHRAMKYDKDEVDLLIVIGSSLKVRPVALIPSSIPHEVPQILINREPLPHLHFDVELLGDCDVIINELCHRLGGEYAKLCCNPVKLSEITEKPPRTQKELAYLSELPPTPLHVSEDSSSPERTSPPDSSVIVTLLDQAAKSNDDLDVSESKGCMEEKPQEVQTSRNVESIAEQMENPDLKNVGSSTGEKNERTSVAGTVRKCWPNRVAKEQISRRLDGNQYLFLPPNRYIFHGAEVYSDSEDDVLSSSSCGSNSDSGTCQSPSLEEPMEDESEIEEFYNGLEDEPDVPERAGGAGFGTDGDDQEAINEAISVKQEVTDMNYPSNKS
protocol notes: TAMRA based mass spectrometry assay of SIRT1 activity
Type: biochemical
run conditions: TAMRA assay; percent maximum fold activation; read-out: TAMRA % Fold Act
Can you tell me Emax for the items I'm about to list?

Consider the worked cases shown below.
# compound, Emax
data = [
    ("Cc1cc(-c2ccccc2C(F)(F)F)nn2c(C(=O)Nc3ccnc(OC(C)C)n3)cnc12", "≥ 350%"),
    ("Cc1nccc(C(=O)Nc2cnn3ccc(-c4ccccc4OC(F)(F)F)nc23)n1", "≥ 350%"),
    ("Cc1cc(C(=O)Nc2cnn3ccc(-c4ccccc4OC(F)(F)F)nc23)nc(C)n1", "≥ 350%"),
    ("N#Cc1ccccc1-c1ccc2ncc(C(=O)Nc3ccncc3)n2n1", "< 350%"),
    ("Cc1nc2ccc(-c3ccccc3Cl)nn2c1NC(=O)c1cccc(N2CCOCC2)n1", "≥ 350%"),
]

I need Emax for every entry listed below, if you could help.
1. O=C(Nc1cccnn1)c1cnn2ccc(-c3ccccc3OC(F)(F)F)nc12
2. N#Cc1ccccc1-c1ccc2ncc(NC(=O)c3cccc(OCC(O)CO)n3)n2n1 (centres unmarked)
3. CCOc1ccc(NC(=O)c2c(C)nc3ccc(-c4cccc(F)c4)nn23)nn1

Response:
["≥ 350%", "≥ 350%", "< 350%"]

###

target system: SIRT1 (Homo sapiens, UniProt Q96EB6)
Sequence (Q96EB6 1-747): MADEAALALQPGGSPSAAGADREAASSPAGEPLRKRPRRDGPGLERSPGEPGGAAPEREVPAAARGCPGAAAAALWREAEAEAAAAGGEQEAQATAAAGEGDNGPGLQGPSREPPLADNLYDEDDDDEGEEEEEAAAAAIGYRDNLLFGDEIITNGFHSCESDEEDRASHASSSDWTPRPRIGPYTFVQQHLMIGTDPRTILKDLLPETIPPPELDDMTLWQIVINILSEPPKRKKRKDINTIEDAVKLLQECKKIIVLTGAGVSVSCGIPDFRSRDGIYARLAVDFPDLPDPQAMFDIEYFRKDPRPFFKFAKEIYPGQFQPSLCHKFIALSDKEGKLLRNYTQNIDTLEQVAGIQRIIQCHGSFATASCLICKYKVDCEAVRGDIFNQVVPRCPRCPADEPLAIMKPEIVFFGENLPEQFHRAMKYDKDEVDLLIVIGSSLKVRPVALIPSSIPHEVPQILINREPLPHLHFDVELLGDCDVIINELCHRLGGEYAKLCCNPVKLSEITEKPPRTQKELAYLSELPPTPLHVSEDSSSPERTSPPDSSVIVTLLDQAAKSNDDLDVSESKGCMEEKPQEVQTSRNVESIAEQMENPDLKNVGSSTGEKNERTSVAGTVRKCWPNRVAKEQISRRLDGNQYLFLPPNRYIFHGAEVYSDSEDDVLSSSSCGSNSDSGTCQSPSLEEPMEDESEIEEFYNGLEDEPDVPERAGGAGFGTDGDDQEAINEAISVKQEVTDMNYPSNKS
protocol notes: TAMRA based mass spectrometry assay of SIRT1 activity
Type: biochemical
run conditions: concentration of test compound giving 150% activation of SIRT1; TAMRA peptide substrate
measured parameter: TAMRA EC1.5 (μM)

# compound string, TAMRA EC1.5 (μM)
records = [
    ("O=C(Nc1cccc(N2CCC2)n1)c1cnc2ccc(-c3ccccc3C(F)F)nn12", "A (EC1.5<1 μM)"),
    ("Cc1noc(C)c1-c1ccc2ncc(C(=O)Nc3cccc(N4CCOCC4)n3)n2n1", "B (EC1.5 1-25 μM)"),
    ("O=C(Nc1cccc(N2CCC2)n1)c1nnc2ccc(-c3ccccc3C(F)(F)F)nn12", "A (EC1.5<1 μM)"),
    ("O=C(Nc1cccc(CN2CCOCC2)n1)c1cnc2ccc(-c3ccccc3C(F)(F)F)nn12", "A (EC1.5<1 μM)"),
    ("O=C(Nc1cccnc1)c1cnc2ccc(-c3cccc(F)c3Cl)nn12", "B (EC1.5 1-25 μM)"),
]

I need TAMRA EC1.5 (μM) for every entry listed below, if you could help.
1. O=C(Nc1cccnn1)c1cnc2ccc(-c3ccccc3C(F)(F)F)nn12
2. O=C(NCc1cccnc1)c1cnc2ccc(-c3cccc(C(F)(F)F)c3)nn12

Response:
1. B (EC1.5 1-25 μM)
2. B (EC1.5 1-25 μM)
